Test system: 817829-284-R-J1-PDC complex spheroids, viability
Assay: Anticancer human tumor 817829-284-R-J1-PDC patient-derived colon adenocarcinoma cell line growth inhibition [CLK]; active means viability on the fitted dose curve at most 10% of control; inactive means the rest
Settings: compound 0.316 µM
Reply using exactly one outcome from active, inactive

Below, 7 compounds whose answers are already recorded.
CC1(C)CCC(CN2CCN(c3ccc(C(=O)NS(=O)(=O)c4ccc(NCC5CCOCC5)c([N+](=O)[O-])c4)c(Oc4cnc5[nH]ccc5c4)c3)CC2)=C(c2ccc(Cl)cc2)C1	inactive
CNC(=O)c1ccc(Nc2nc(OC3CCCC3)c3c(-c4ccc5nc(C)oc5c4)c[nH]c3n2)c(OC)c1	inactive
Nc1ccccc1NC(=O)c1ccc(CNC(=O)OCc2cccnc2)cc1	inactive
CN1CCN(c2cc(C(=O)Nc3cc4cc(-c5cnn(C)c5)ccc4cn3)ccn2)CC1	active
COc1cccc2c1C(=O)c1c(O)c3c(c(O)c1C2=O)CC(O)(C(=O)CO)CC3OC1CC(N)C(O)C(C)O1 (stereo not drawn)	active
CCN1CCN(Cc2ccc(Nc3ncc(F)c(-c4cc(F)c5nc(C)n(C(C)C)c5c4)n3)nc2)CC1	inactive
COc1ccc([C@@H](O)c2cc(-c3ncnc4cc(N5CCOCC5)ccc34)c(F)cc2Cl)nn1	inactive

Next compound, please.
Kindly provide the recorded test outcome for the following compound: CC1COCCN1c1cc(C2(S(C)(=N)=O)CC2)nc(-c2ccnc3[nH]ccc23)n1 (stereo not drawn)
inactive

###

Test system: 817829-284-R-J1-PDC complex spheroids, viability
Test: Anticancer human tumor 817829-284-R-J1-PDC cell line growth inhibition [CLK];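 further: spheroids exposed to the agents for seven days before readout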
Settings: curve of first compound; second compound 3.16 µM
Measured IC50, listed per entry for reference.

Known results for compounds:
CCN1CCN(Cc2ccc(Nc3ncc(F)c(-c4cc(F)c5nc(C)n(C(C)C)c5c4)n3)nc2)CC1 + CN1CCN(c2cc(C(=O)Nc3cc4cc(-c5cnn(C)c5)ccc4cn3)ccn2)CC1	< 3.16 nM
C=CC(=O)N1CCN(c2nc(=O)n(-c3c(C)ccnc3C(C)C)c3nc(-c4c(O)cccc4F)c(F)cc23)C(C)C1 (stereo not drawn) + CN1CCN(c2cc(C(=O)Nc3cc4cc(-c5cnn(C)c5)ccc4cn3)ccn2)CC1	< 31.6 nM

Attention now shifts to the item below.
Consider the compound COc1cccc2c1C(=O)c1c(O)c3c(c(O)c1C2=O)CC(O)(C(=O)CO)CC3OC1CC(N)C(O)C(C)O1 (stereo not drawn) + CN1CCN(c2cc(C(=O)Nc3cc4cc(-c5cnn(C)c5)ccc4cn3)ccn2)CC1 and give its measured IC50.
< 31.6 nM

###

System: 817829-284-R-J1-PDC complex spheroids, viability
Assay: Anticancer human tumor 817829-284-R-J1-PDC cell line growth inhibition [CLK]; active = viability on the fitted dose curve at most 10% of control; inactive = the rest;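 further: spheroids exposed to the agents for seven days before readout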
Details: second compound 1 µM; first compound 0.0316 µM
Text: A high-throughput screen of multi-cell type tumor spheroids was designed to identify active combinations of […] and targeted small molecules. Complex spheroids include a stromal component modeled by human endothelial cells (HUVEC) and fibroblasts modeled by human mesenchymal stem cells (MSCs). […] Compounds. […] If the clinical Cmax for an agent had not been determined, the highest concentration tested was 10 microM. […]
Reply using exactly one outcome from active, inactive

CC(=O)O[C@H]1C(=O)[C@@]2(C)[C@H]([C@H](OC(=O)c3ccccc3)[C@]3(O)C[C@H](OC(=O)[C@H](O)[C@@H](NC(=O)c4ccccc4)c4ccccc4)C(C)=C1C3(C)C)[C@]1(OC(C)=O)CO[C@@H]1C[C@@H]2O + CN1CCN(c2cc(C(=O)Nc3cc4cc(-c5cnn(C)c5)ccc4cn3)ccn2)CC1	active
C=CC(=O)N1CCN(c2nc(=O)n(-c3c(C)ccnc3C(C)C)c3nc(-c4c(O)cccc4F)c(F)cc23)C(C)C1 (stereo not given) + CNC(=O)c1ccc(Nc2nc(OC3CCCC3)c3c(-c4ccc5nc(C)oc5c4)c[nH]c3n2)c(OC)c1	inactive
C#Cc1c(F)ccc2cc(O)cc(-c3ncc4c(N5CC6CCC(C5)N6)nc(OCC56CCCN5CC(F)C6)nc4c3F)c12 (stereo not given) + CNC(=O)c1ccc(Nc2nc(OC3CCCC3)c3c(-c4ccc5nc(C)oc5c4)c[nH]c3n2)c(OC)c1	inactive
CCCS(=O)(=O)Nc1ccc(F)c(C(=O)c2c[nH]c3ncc(-c4ccc(Cl)cc4)cc23)c1F + CN1CCN(c2cc(C(=O)Nc3cc4cc(-c5cnn(C)c5)ccc4cn3)ccn2)CC1	active

Kindly provide the recorded test outcome for the following compound: CC1COCCN1c1cc(C2(S(C)(=N)=O)CC2)nc(-c2ccnc3[nH]ccc23)n1 (stereo not given) + CN1CCN(c2cc(C(=O)Nc3cc4cc(-c5cnn(C)c5)ccc4cn3)ccn2)CC1
active

###

Test system: 817829-284-R-J1-PDC complex spheroids, viability
Assay: Anticancer human tumor 817829-284-R-J1-PDC cell line growth inhibition [CLK];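 further: spheroids exposed to the agents for seven days before readout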
Settings: second compound 3.16 µM; first compound 1 µM; stronger effect = lower value
Text: A high-throughput screen of multi-cell type tumor spheroids was designed to identify active combinations of […] and targeted small molecules. Complex spheroids include a stromal component modeled by human endothelial cells (HUVEC) and fibroblasts modeled by human mesenchymal stem cells (MSCs). […] Compounds. […] If the clinical Cmax for an agent had not been determined, the highest concentration tested was 10 microM. […]
# note: boundary value 0.2% maps to NOT MET; viability, T/C below it maps to MET

Below, 8 molecules whose answers are already recorded.
C=CC(=O)N1CCN(c2nc(=O)n(-c3c(C)ccnc3C(C)C)c3nc(-c4c(O)cccc4F)c(F)cc23)C(C)C1 (stereo not given) + CN1CCN(c2cc(C(=O)Nc3cc4cc(-c5cnn(C)c5)ccc4cn3)ccn2)CC1	MET
C#Cc1c(F)ccc2cc(O)cc(-c3ncc4c(N5CC6CCC(C5)N6)nc(OCC56CCCN5CC(F)C6)nc4c3F)c12 (stereo not given) + CN1CCN(c2cc(C(=O)Nc3cc4cc(-c5cnn(C)c5)ccc4cn3)ccn2)CC1	MET
CC(=O)O[C@H]1C(=O)[C@@]2(C)[C@H]([C@H](OC(=O)c3ccccc3)[C@]3(O)C[C@H](OC(=O)[C@H](O)[C@@H](NC(=O)c4ccccc4)c4ccccc4)C(C)=C1C3(C)C)[C@]1(OC(C)=O)CO[C@@H]1C[C@@H]2O + CN1CCN(c2cc(C(=O)Nc3cc4cc(-c5cnn(C)c5)ccc4cn3)ccn2)CC1	MET
O=C(c1cc(Cc2n[nH]c(=O)c3ccccc23)ccc1F)N1CCN(C(=O)C2CC2)CC1 + CN1CCN(c2cc(C(=O)Nc3cc4cc(-c5cnn(C)c5)ccc4cn3)ccn2)CC1	MET
CC1(C)CCC(CN2CCN(c3ccc(C(=O)NS(=O)(=O)c4ccc(NCC5CCOCC5)c([N+](=O)[O-])c4)c(Oc4cnc5[nH]ccc5c4)c3)CC2)=C(c2ccc(Cl)cc2)C1 + CN1CCN(c2cc(C(=O)Nc3cc4cc(-c5cnn(C)c5)ccc4cn3)ccn2)CC1	MET
COc1cccc2c1C(=O)c1c(O)c3c(c(O)c1C2=O)CC(O)(C(=O)CO)CC3OC1CC(N)C(O)C(C)O1 (stereo not given) + CN1CCN(c2cc(C(=O)Nc3cc4cc(-c5cnn(C)c5)ccc4cn3)ccn2)CC1	NOT MET
CCN1CCN(Cc2ccc(Nc3ncc(F)c(-c4cc(F)c5nc(C)n(C(C)C)c5c4)n3)nc2)CC1 + CN1CCN(c2cc(C(=O)Nc3cc4cc(-c5cnn(C)c5)ccc4cn3)ccn2)CC1	MET
CC(Nc1ccc2c(c1)OCCn1cc(N3C(=O)OCC3C(F)F)nc1-2)C(N)=O (stereo not given) + CN1CCN(c2cc(C(=O)Nc3cc4cc(-c5cnn(C)c5)ccc4cn3)ccn2)CC1	MET

Next molecule, please.
Field: below-cutoff. Rule: recorded viability, T/C strictly less than 0.2%. Subject: Nc1ccn(C2OC(CO)C(O)C2(F)F)c(=O)n1 (stereo not given) + CNC(=O)c1ccc(Nc2nc(OC3CCCC3)c3c(-c4ccc5nc(C)oc5c4)c[nH]c3n2)c(OC)c1
NOT MET

###

Test system: 817829-284-R-J1-PDC complex spheroids, viability
Test: Anticancer human tumor 817829-284-R-J1-PDC cell line growth inhibition [CLK];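 further: spheroids exposed to the agents for seven days before readout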
Details: second compound 0.1 µM; first compound 0.01 µM; stronger effect = lower value
Measured viability, T/C, listed per entry for reference.
Numeric answer only, unit % assumed.

Known results for molecules:
CCN1CCN(Cc2ccc(Nc3ncc(F)c(-c4cc(F)c5nc(C)n(C(C)C)c5c4)n3)nc2)CC1 + CN1CCN(c2cc(C(=O)Nc3cc4cc(-c5cnn(C)c5)ccc4cn3)ccn2)CC1	16.2
Cn1ncnc1[C@H]1c2n[nH]c(=O)c3cc(F)cc(c23)N[C@@H]1c1ccc(F)cc1 + CN1CCN(c2cc(C(=O)Nc3cc4cc(-c5cnn(C)c5)ccc4cn3)ccn2)CC1	14
COc1c(OCCCN2CCOCC2)ccc2c3n(c(=NC(=O)c4cnc(N)nc4)nc12)CCN3 + CN1CCN(c2cc(C(=O)Nc3cc4cc(-c5cnn(C)c5)ccc4cn3)ccn2)CC1	17.7
Cn1ncnc1[C@H]1c2n[nH]c(=O)c3cc(F)cc(c23)N[C@@H]1c1ccc(F)cc1 + CNC(=O)c1ccc(Nc2nc(OC3CCCC3)c3c(-c4ccc5nc(C)oc5c4)c[nH]c3n2)c(OC)c1	23.5
CCc1c2c(nc3ccc(O)cc13)-c1cc3c(c(=O)n1C2)COC(=O)[C@]3(O)CC + CN1CCN(c2cc(C(=O)Nc3cc4cc(-c5cnn(C)c5)ccc4cn3)ccn2)CC1	11.4

Consider the molecule CCc1c2c(nc3ccc(O)cc13)-c1cc3c(c(=O)n1C2)COC(=O)[C@]3(O)CC + CNC(=O)c1ccc(Nc2nc(OC3CCCC3)c3c(-c4ccc5nc(C)oc5c4)c[nH]c3n2)c(OC)c1 and give its measured viability, T/C.
17.2

Consider the molecule COc1c(OCCCN2CCOCC2)ccc2c3n(c(=NC(=O)c4cnc(N)nc4)nc12)CCN3 + CNC(=O)c1ccc(Nc2nc(OC3CCCC3)c3c(-c4ccc5nc(C)oc5c4)c[nH]c3n2)c(OC)c1 and give its measured viability, T/C.
21
